Each item that follows carries a reported Kd.
measured-on: RBD of SARS-CoV-2 spike protein (SARS-CoV-2, UniProt P0DTC2 319-541)
method-summary: BLI; ka ([…]; kd ([…]; RBD 80-1200 nM; […]; BLI on streptavidin sensors, buffer and temperature not stated; […]
test-conditions: protein: commercial; label: 5'-biotin
Response body: numeric value in nM, unit text excluded.

>  <binder>
Biotin-RBD-1C (structured_DNA) DNA: CAGCACCGACCTTGTGCTTTGGGAGTGCTGGTCCAAGGGCGTTAATGGACA

>  <endpoint-value>
13

$$$$

Okay, next one:
Provide only the value of recorded Kd for TTTGGGAGTGCTGGTCCAAGGGCGTTAATGGACA (structured_DNA) [Biotin-RBD-1C-sh] 330

Entry source: paper PMC8228355
